tested on: MCF7 (breast carcinoma) cells; assay: sulforhodamine B (SRB) cytotoxicity assay, MCF7; assay type: cell-based; details: GI50 on 3T3 cells divided by GI50 on MCF7
measure: selectivity index (SI)

{"columns": ["compound", "measure", "recorded.value"],
 "data": [
  ["Cc1cc(O)c(C=O)c2c1C(=O)Oc1c(C)c(O)c3c(c1O2)C(OC(C)(C)C)OC3=O (centres unmarked)", "selectivity index (SI)", 0.6],
  ["CCCCCCOC1OC(=O)c2c(O)c(C)c3c(c21)Oc1c(C=O)c(O)cc(C)c1C(=O)O3 (centres unmarked)", "selectivity index (SI)", 5.76],
  ["CCCCCOC1OC(=O)c2c(O)c(C)c3c(c21)Oc1c(C=O)c(O)cc(C)c1C(=O)O3 (centres unmarked)", "selectivity index (SI)", 3.69],
  ["CCCCOC1OC(=O)c2c(O)c(C)c3c(c21)Oc1c(C=O)c(O)cc(C)c1C(=O)O3 (centres unmarked)", "selectivity index (SI)", 47.15],
  ["Cc1cc(O)c(C=O)c2c1C(=O)Oc1c(C)c(O)c3c(c1O2)C(OC(C)C)OC3=O (centres unmarked)", "selectivity index (SI)", 0.73]
]}

* * *

Tested on: MCF7 (breast carcinoma) cells
Assay: sulforhodamine B (SRB) cytotoxicity assay, MCF7
Assay type: cell-based
Details: GI50 on 3T3 cells divided by GI50 on MCF7
Source text: MCF7 (ATCC HTB-22, breast adenocarcinoma), 786-0 (ATCC CRL-1932, renal cell adenocarcinoma), PC-03 (ATCC CRL-1435, prostatic adenocarcinoma), HT-29 (ATCCHTB-38, colorectal adenocarcinoma), and HEP2 (ATCC CCL-23, laryngeal carcinoma) cells donated by Dr. João Ernesto de Carvalho (CPQBA – UNICAMP), and NIH/3T3 cells (ATCC CRL-1658, mouse embryonic fibroblast), purchased from the Rio de Janeiro Cell Bank, were used for the evaluation of cytotoxic activity. […]
measure: selectivity index (SI)

{"columns": ["compound", "measure", "recorded.value"],
 "data": [
  ["CCCOC1OC(=O)c2c(O)c(C)c3c(c21)Oc1c(C=O)c(O)cc(C)c1C(=O)O3 (stereo not drawn)", "selectivity index (SI)", 0.15],
  ["COc1cccc2c1C(=O)c1c(O)c3c(c(O)c1C2=O)C[C@@](O)(C(=O)CO)C[C@@H]3O[C@H]1C[C@H](N)[C@H](O)[C@H](C)O1 [Doxorubicin, reference compound]", "selectivity index (SI)", 6.4],
  ["CCC(C)OC1OC(=O)c2c(O)c(C)c3c(c21)Oc1c(C=O)c(O)cc(C)c1C(=O)O3 (stereo not drawn)", "selectivity index (SI)", 87.4]
]}

* * *

This listing pairs compounds with measured melting point.

{"columns": ["compound", "quantity.unit", "melting point"],
 "data": [
  ["CCCCCOC1OC(=O)c2c(O)c(C)c3c(c21)Oc1c(C=O)c(O)cc(C)c1C(=O)O3 (stereo not drawn)", "°C", 175],
  ["Cc1cc(O)c(C=O)c2c1C(=O)Oc1c(C)c(O)c3c(c1O2)C(OC(C)(C)C)OC3=O (stereo not drawn)", "°C", 196],
  ["CCCOC1OC(=O)c2c(O)c(C)c3c(c21)Oc1c(C=O)c(O)cc(C)c1C(=O)O3 (stereo not drawn)", "°C", 183]
]}
